- TESTED TARGET: T1, human PVRIG on cells (human, UniProt Q6DKI7 1-326)
- T1 construct: whole, on cells; over-expressed on HEK cells or endogenous on Jurkat and CD8 T cells; also called hPVRIG; HEK hPVRIG cells
- T1 sequence (looked up): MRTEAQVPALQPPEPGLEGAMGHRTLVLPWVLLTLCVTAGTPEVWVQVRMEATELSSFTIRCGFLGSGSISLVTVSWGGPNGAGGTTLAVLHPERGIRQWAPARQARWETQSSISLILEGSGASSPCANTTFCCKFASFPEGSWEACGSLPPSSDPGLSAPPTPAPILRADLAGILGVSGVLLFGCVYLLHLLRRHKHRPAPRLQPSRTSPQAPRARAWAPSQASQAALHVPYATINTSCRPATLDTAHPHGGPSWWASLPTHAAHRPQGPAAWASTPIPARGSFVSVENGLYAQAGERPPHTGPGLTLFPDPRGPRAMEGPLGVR
- PROTOCOL NOTES: FACS, human PBMC, CD8+ T cells, 10ug/ml
gMFIr Human CD8+ T cells vs 3: less than gives rule met; not less than gives rule not met.

CHA.7.548 (antibody, V domains shown) VH: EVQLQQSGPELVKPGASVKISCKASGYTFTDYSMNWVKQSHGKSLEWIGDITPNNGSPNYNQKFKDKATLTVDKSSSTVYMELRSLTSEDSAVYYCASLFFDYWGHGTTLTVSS VL: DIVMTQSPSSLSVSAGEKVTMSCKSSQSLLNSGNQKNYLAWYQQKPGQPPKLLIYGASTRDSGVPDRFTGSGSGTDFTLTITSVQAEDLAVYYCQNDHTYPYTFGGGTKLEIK | rule not met
CHA.7.535 (antibody, V domains shown) VH: EVQLQQSGPELVKPGASVKISCKTSGYTFTKNTMHWVRQSHGKSLEWIGGINPNSGGASFNQKFMGKATLTVDKSSSTAYMELRSLTSEDSAVYYCARDGYDGDWFFDVWGAGTTVTVSS VL: DIQMNQSPFSLSASLGDTVTITCHASQNIYVWLSWYQQKPGNIPKLLIYKASDLHTGVPSRFSGSGSGTDFTLNISSLQPEDIATYYCQQGQSYPRTFGGGTKLEIK | rule met
CHA.7.503 (antibody, V domains shown) VH: QVQLQQSGAELAKPGASVKMSCKASGYTFTSNWMHWVKQRPGQGLEWIGYINPSNGYTECNQKFRDKATLSADKSSSTAYMQLNSLTSADSAVYYCALMISAWLPYWGQGTLVTVSA VL: DIVLTQSPASLAISLGQRATISCRASQSVSASSYSYVHWYQQKPGQPPKLLIKYASSLESGVPARFSGSGSGTDFTLNIHPVEEEDTATYYCLHTWEIPYTFGGGTKLEIK | rule met

Please turn your attention to the following entry.
Input: Hello, is gMFIr Human CD8+ T cells of the following binder strictly smaller than 3? CHA.7.530 (antibody, V domains shown) VH: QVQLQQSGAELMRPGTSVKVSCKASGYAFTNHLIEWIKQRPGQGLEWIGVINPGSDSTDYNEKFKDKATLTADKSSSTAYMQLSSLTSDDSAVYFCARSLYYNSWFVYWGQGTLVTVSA VL: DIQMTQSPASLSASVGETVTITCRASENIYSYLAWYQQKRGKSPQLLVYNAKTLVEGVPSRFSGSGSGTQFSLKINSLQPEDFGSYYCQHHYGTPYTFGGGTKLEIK
Output: rule not met
